Data origin: patent US9890166B2

target: CREBBP bromodomain (His-CREBBP(1081-1197)) (Homo sapiens (Human), UniProt Q92793); assay: AlphaScreen in-vitro binding assay for CREBBP; settings: single determination or n ≧ 2 independent determinations, read-out: Biochemical IC50 CREBBP
Sequence (Q92793 1081-1197): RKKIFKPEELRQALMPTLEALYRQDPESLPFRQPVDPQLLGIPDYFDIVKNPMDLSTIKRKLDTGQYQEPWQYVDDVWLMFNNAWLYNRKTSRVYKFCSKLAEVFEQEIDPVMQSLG
Provide the reported IC50 of each item.
Numbers only, in µM.

1) Cc1cc(N2C(=O)c3ncn(C(C)C)c3C2c2ccc(Cl)cc2)cc2c1nnn2C (stereo not shown): 7.2

Now for another entry.
Task item: Supply IC50 measured with CREBBP bromodomain (His-CREBBP(1081-1197)) (Homo sapiens (Human), UniProt Q92793) for COc1ncc(-c2nc3c([nH]2)C(c2ccc(Cl)cc2)N(c2cc(C)c4nnc(C)n4c2)C3=O)c(OC)n1 (stereo not shown) .
Reply: 3.8

---

Reported values: GI50 for K-562 cells, one per item.
Give bare numbers, in nM.

1. Cc1cc(N2C(=O)c3nc(C4=CCOCC4)n(C(C)C)c3[C@H]2c2ccc(Cl)cc2)nn2c(C)nnc12 [Example 103]: 12.4
2. Cc1cc(N2C(=O)c3nc(C4CCOCC4)n(C(C)C)c3C2c2ccc(Cl)cc2)cn2c(C)nnc12 (stereo not shown) [Example 86]: 250
3. Cc1cc(N2C(=O)c3nc(C4CCOCC4)n(C(C)C)c3C2c2ccc(Cl)cc2)cc2c1nnn2C (stereo not shown) [Example 80]: 28.8
4. Cc1cc(N2C(=O)c3nc(C)n(C(C)C)c3C2c2ccc(Cl)cc2)nn2c(C)nnc12 (racemic) [Example 18]: 91
5. Cc1nc(C)c(-c2nc3c(n2C(C)C)C(c2ccc(Cl)cc2)N(c2cc(C)c(=O)n(C)c2)C3=O)s1 (stereo not shown) [Example 25]: 528
6. COc1ccc(-c2nc3c([nH]2)[C@@H](c2ccc(Cl)cc2)N(c2cc(C)c4nnc(C)n4c2)C3=O)cn1 [Example 129]: 1070

Let us move to another entry and its GI50.
Task item: For the molecule Cc1noc(C)c1-c1nc2c(n1C(C)C)C(c1ccc(Cl)cc1)N(c1cc(C)c(=O)n(C)c1)C2=O (stereo not shown) [Example 27] , report GI50.
Reply: 861

---

Give IC50 for every item shown.
molecular target: BRD4 (His-Brd4(44-477)) (Homo sapiens (Human), UniProt O60885)
Give bare numbers, in nM.

See these solved cases before continuing.
1) COc1ncc(-c2nc3c([nH]2)[C@@H](c2ccc(Cl)cc2)N(c2cc(OC)c4nnc(C)n4c2)C3=O)c(OC)n1: 84.5
2) Cc1cc(N2C(=O)c3nc(C4=CCN(C)CC4)[nH]c3C2c2ccc(Cl)cc2)cn(C)c1=O (stereo not shown): 31

Field: next compound
Task item: Tell me its IC50 given COc1ncccc1-c1nc2c([nH]1)C(c1ccc(Cl)cc1)N(c1cc(C)c3nnc(C(F)F)n3c1)C2=O (stereo not shown) as the entry.
Reply: 29

---

Quick note: these are pIC50 numbers for system: BRD2 (His-Brd2(60-472)) (Homo sapiens (Human))
Sequence (P25440 60-472): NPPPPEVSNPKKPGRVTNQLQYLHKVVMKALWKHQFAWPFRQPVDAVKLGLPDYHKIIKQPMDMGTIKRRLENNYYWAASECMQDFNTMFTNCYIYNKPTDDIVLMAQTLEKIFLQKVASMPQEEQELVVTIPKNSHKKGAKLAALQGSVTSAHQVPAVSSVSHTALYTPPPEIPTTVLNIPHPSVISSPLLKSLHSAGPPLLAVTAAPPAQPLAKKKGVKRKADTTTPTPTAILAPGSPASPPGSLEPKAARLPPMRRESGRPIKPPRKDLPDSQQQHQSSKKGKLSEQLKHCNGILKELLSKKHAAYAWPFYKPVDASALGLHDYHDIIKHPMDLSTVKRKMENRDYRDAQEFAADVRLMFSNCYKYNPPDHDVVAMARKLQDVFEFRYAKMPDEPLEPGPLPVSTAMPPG
Numbers only, as −log10 of the molar value.

Check out these entries, answers already filled in.
1) COc1ccc(-c2nc3c(n2C(C)C)C(c2ccc(Cl)cc2)N(c2cc(C)c4nnc(C)n4c2)C3=O)cn1 (stereo not shown): 7.37
2) COc1ncccc1-c1nc2c(n1C(C)C)C(c1ccc(Cl)cc1)N(c1cc(C)c3nnc(C(F)F)n3n1)C2=O (stereo not shown): 7.44
3) COc1ccc(-c2nc3c(n2C(C)C)C(c2ccc(Cl)cc2)N(c2cc(C)c4nnn(C)c4c2)C3=O)cn1 (stereo not shown): 7.19

Task item: Return pIC50 (reported value) for this molecule: Cc1cc(N2C(=O)c3nc(C4=CCOC4)n(C(C)C)c3[C@H]2c2ccc(Cl)cc2)cn2c(C)nnc12
Reply: 7.39

---

For each record, write down the corresponding pIC50.
molecular target: CREBBP bromodomain (His-CREBBP(1081-1197)) (Homo sapiens (Human), UniProt Q92793); assay: AlphaScreen in-vitro binding assay for CREBBP; conditions: single determination or n ≧ 2 independent determinations, read-out: Biochemical IC50 CREBBP
Numbers only, as −log10 of the molar value.

Solved entries (count: 5):
1) Cc1cc(N2C(=O)c3nc(C4CC4)n(C(C)C)c3C2c2ccc(Cl)cc2)cn(C)c1=O (stereo not drawn): 5.47
2) Cc1cc(N2C(=O)c3nc(C4=CCN(C)CC4)n(C(C)C)c3C2c2ccc(Cl)cc2)cn2c(C)nnc12 (stereo not drawn): 5.27
3) Cc1cc(N2C(=O)c3nc(C4=CCNCC4)n(C(C)C)c3C2c2ccc(Cl)cc2)cn2c(C)nnc12 (stereo not drawn): 5.66
4) Cc1cc(N2C(=O)c3[nH]c(C4CC4)nc3[C@H]2c2ccc(Cl)cc2)cn(C)c1=O: 5.96
5) COc1cc(N2C(=O)c3nc(C4CCOCC4)n(C(C)C)c3C2c2ccc(Cl)cc2)cc2c1nnn2C (racemic): 4.99

Batch of 4 compounds: report pIC50 for each.
1. COc1cc(N2C(=O)c3nc(C4=CCCN(C)C4)n(C(C)C)c3C2c2ccc(Cl)cc2)cc2c1nnn2C (stereo not drawn)
2. Cc1cc(N2C(=O)c3nc(C4=CCCN(C)C4)n(C(C)C)c3[C@H]2c2ccc(Cl)cc2)cn2c(C)nnc12
3. CCn1c(C)nc2c1C(=O)N(c1cc(C)c3nnn(C)c3c1)C2c1ccc(Cl)cc1 (stereo not drawn)
4. Cc1cc(N2C(=O)c3nc(C4CCOCC4)n(C(C)C)c3[C@H]2c2ccc(Cl)cc2)nn2c(C)nnc12

Reply:
[4.50, 5.44, 5.36, 4.76]

---

Quick record of IC50 values for BRD4 (His-Brd4(44-477)) (Homo sapiens (Human), UniProt O60885).
Give bare numbers, in nM.

Please review the entries below; each comes with its answer.
1) Cc1cc(N2C(=O)c3nc(C4=CC(C)(C)NC(C)(C)C4)n(C(C)C)c3C2c2ccc(Cl)cc2)cn2c(C)nnc12 (centres unmarked): 19.5
2) Cc1cc(N2C(=O)c3nc(C4CCOC4)n(C(C)C)c3[C@H]2c2ccc(Cl)cc2)cc2c1nnn2C (some centres unmarked): 13
3) CCn1c(-c2ccnn2C)nc2c1C(=O)N(c1cc(C)c(=O)n(C)c1)C2c1ccc(Cl)cc1 (centres unmarked): 69
4) Cc1cc(N2C(=O)c3nc(C4=CCN(S(C)(=O)=O)CC4)n(C(C)C)c3C2c2ccc(Cl)cc2)cn2c(C)nnc12 (centres unmarked): 17
5) COc1cc(N2C(=O)c3nc(C4CC4)n(C(C)C)c3C2c2ccc(Cl)cc2)cn2c(C)nnc12 (centres unmarked): 41
6) Cc1nc(C)c(-c2nc3c(n2C(C)C)C(c2ccc(Cl)cc2)N(c2cc(C)c(=O)n(C)c2)C3=O)s1 (centres unmarked): 99
7) COc1cc(N2C(=O)c3nc(C4=CCOCC4)n(C(C)C)c3C2c2ccc(Cl)cc2)cn2c(C)nnc12 (centres unmarked): 92
8) COc1ncc(-c2nc3c(n2C(C)C)C(c2ccc(Cl)cc2)N(c2cc(C)c4nnc(C)n4c2)C3=O)c(OC)n1 (centres unmarked): 45
9) Cc1cc(N2C(=O)c3nc(-c4nccs4)n(C(C)C)c3C2c2ccc(Cl)cc2)cn(C)c1=O (centres unmarked): 52
10) COc1cc(N2C(=O)c3nc(C4=CCOCC4)n(C(C)C)c3[C@H]2c2ccc(Cl)cc2)cc2c1nnn2C: 24.5

The following compounds each have a reported value; give each one's IC50.
1. Cc1cc(N2C(=O)c3nc(C4=CCNCC4)n(C(C)C)c3C2c2ccc(Cl)cc2)cn2c(C)nnc12 (centres unmarked)
2. COc1ncc(-c2nc3c([nH]2)C(c2ccc(Cl)cc2)N(c2cc(C)c4nnc(C)n4c2)C3=O)c(OC)n1 (centres unmarked)
3. COc1ccc(-c2nc3c([nH]2)[C@@H](c2ccc(Cl)cc2)N(c2cc(C)c(=O)n(C)c2)C3=O)cn1

Reply:
1. 35
2. 38
3. 30

Field: IC50. Fill in for each record below.
1. Cc1cc(N2C(=O)c3nc(C4CC4)n(C(C)C)c3C2c2ccc(Cl)cc2)cn2c(C(F)F)nnc12 (centres unmarked)
2. Cc1cc(N2C(=O)c3nc(C4CCNCC4)n(C(C)C)c3C2c2ccc(Cl)cc2)cn2c(C)nnc12 (centres unmarked)
3. Cc1cc(N2C(=O)c3nc(C4=CCOCC4)[nH]c3C2c2ccc(Cl)cc2)cn2c(C)nnc12 (centres unmarked)
4. Cc1cc(N2C(=O)c3nc(C4=CCOCC4)[nH]c3C2c2ccc(Cl)cc2)cn(C)c1=O (centres unmarked)
5. COc1cc(N2C(=O)c3nc(C4=CCCN(C)C4)n(C(C)C)c3C2c2ccc(Cl)cc2)cc2c1nnn2C (centres unmarked)
6. Cc1cc(N2C(=O)c3nc(N4CCOCC4)n(C)c3C2c2ccc(Cl)cc2)cn(C)c1=O (centres unmarked)
7. COc1ncccc1-c1nc2c([nH]1)[C@@H](c1ccc(Cl)cc1)N(c1cc(C)c(=O)n(C)c1)C2=O

Reply:
28
17
41
38
120
180
25

Provide IC50 for all items below, preserving their order.
1. COc1cc(N2C(=O)c3nc(C)n(C(C)C)c3C2c2ccc(Cl)cc2)cc2c1nnn2C (centres unmarked)
2. Cc1cc(N2C(=O)c3nc(C4CCOCC4)n(C(C)C)c3[C@H]2c2ccc(Cl)cc2)nn2c(C)nnc12

Reply:
72
15
